# assay.procedure: water solubility
# Type: physicochemical
# condition.context: water, soluble
Below is a list of entries, each paired with its recorded solubility value.
reported.property: solubility

| compound | reported.property | assay.result |
| --- | --- | --- |
| CC(=O)Nc1c(I)c(NC(C)=O)c(I)c(C(=O)N[C@@H](CO)C(=O)N(C)C[C@H](O)[C@@H](O)[C@H](O)[C@H](O)CO)c1I [VIII] | solubility | ≤ 500 mg/mL |
| CC(=O)Nc1c(I)c(NC(C)=O)c(I)c(C(=O)N[C@@H](C)C(=O)N(C)C[C@H](O)[C@@H](O)[C@H](O)[C@H](O)CO)c1I [III] | solubility | ≤ 500 mg/mL |

* * *

# assay.procedure: viscosity of aqueous preparations (Table 1)
# Format: physicochemical
# condition.context: 37° C., 200 mg J/ml
Below is a list of entries, each paired with its recorded Viscosity value.

| molecule | scale.unit | Viscosity |
| --- | --- | --- |
| CC(=O)Nc1c(I)c(NC(C)=O)c(I)c(C(=O)NC(CC(=O)N(C)C[C@H](O)[C@@H](O)[C@H](O)[C@H](O)CO)C(=O)N(C)C[C@H](O)[C@@H](O)[C@H](O)[C@H](O)CO)c1I (mixture of isomers) [X] | cP | 5.84 |
| CC(=O)Nc1c(I)c(NC(C)=O)c(I)c(C(=O)N[C@@H](CC(=O)N(C)C[C@H](O)[C@@H](O)[C@H](O)[C@H](O)CO)C(=O)N(C)C[C@H](O)[C@@H](O)[C@H](O)[C@H](O)CO)c1I [IX] | cP | 6.06 |
| CC(=O)Nc1c(I)c(NC(C)=O)c(I)c(C(=O)N(C)CC(=O)N(C)C[C@H](O)[C@@H](O)[C@H](O)[C@H](O)CO)c1I [II] | cP | 3.32 |
| CC(=O)Nc1c(I)c(NC(C)=O)c(I)c(C(=O)N[C@@H](CO)C(=O)N(C)C[C@H](O)[C@@H](O)[C@H](O)[C@H](O)CO)c1I [VIII] | cP | 3.04 |

* * *

# assay.procedure: viscosity of aqueous preparations (Table 1)
# Format: physicochemical
# condition.context: 20° C., 250 mg J/ml
# Source text: The derivatives of compounds (I) of the invention which show a good solubility in water generally show viscosity values which, as can be expected, are dependent from the number and position of the hydroxy groups, as well as from the configuration of the amino acid residue. Representative compounds of the invention are shown in the Table 1, with their viscosity values. Viscosity data in dependency from the type of amino acid and the concentration of the preparation.

| compound | Viscosity (cP) |
| --- | --- |
| CC(=O)Nc1c(I)c(NC(C)=O)c(I)c(C(=O)NC(CC(=O)N(C)C[C@H](O)[C@@H](O)[C@H](O)[C@H](O)CO)C(=O)N(C)C[C@H](O)[C@@H](O)[C@H](O)[C@H](O)CO)c1I (mixture of isomers) | 25.38 |
| CC(=O)Nc1c(I)c(NC(C)=O)c(I)c(C(=O)N[C@@H](CO)C(=O)N(C)C[C@H](O)[C@@H](O)[C@H](O)[C@H](O)CO)c1I | 9.43 |
| CC(=O)Nc1c(I)c(NC(C)=O)c(I)c(C(=O)N(C)CC(=O)N(C)C[C@H](O)[C@@H](O)[C@H](O)[C@H](O)CO)c1I | 10.84 |
| CC(=O)Nc1c(I)c(NC(C)=O)c(I)c(C(=O)N[C@@H](CC(=O)N(C)C[C@H](O)[C@@H](O)[C@H](O)[C@H](O)CO)C(=O)N(C)C[C@H](O)[C@@H](O)[C@H](O)[C@H](O)CO)c1I | 33.58 |

These data points were gathered from patent US4607123A.
